- assay comment: Toxicity against zebrafish embryo assessed as dead embryos at 50 ug/ml measured at 96 hrs post fertilization by inverted microscopic analysis
- Assay type: organism-based, Danio rerio
- condition details: read-out: Activity
measurement type: mortality at 96 h, 50 ug/ml (%)
Lab book: enter the figure in %, no units written.

# smiles str, mortality at 96 h, 50 ug/ml (%)
measured = [
    ("Cc1ccc(-c2ccc(/C=N/NC(=N)N)s2)cc1.Cl", 100),
    ("Cl.N=C(N)N/N=C/c1ccc(-c2ccc(Br)cc2)s1", 100),
    ("Cl.Cl.N=C(N)N/N=C/c1ccc(-c2ccc(/C=N/NC(=N)N)s2)cc1", 3.33),
]

What value of mortality at 96 h, 50 ug/ml has been recorded for this entry: C[C@@H](c1ncncc1F)[C@](O)(Cn1cncn1)c1ccc(F)cc1F
100

###

In this section, each of the molecules is paired with its reported Activity.
- Species: Danio rerio
- assay comment: Toxicity against zebrafish embryo assessed as teratogenic embryos at 2.5 ug/ml measured at 96 hrs post fertilization by inverted microscopic analysis
- Type: organism-based
- condition details: in vivo

Example cases with answers are listed next.
# smiles str, endpoint result
records = [
    ("Cc1ccc(-c2ccc(/C=N/NC(=N)N)s2)cc1.Cl", "6.67%"),
    ("C[C@@H](c1ncncc1F)[C@](O)(Cn1cncn1)c1ccc(F)cc1F", "63.33%"),
    ("Cl.N=C(N)N/N=C/c1ccc(-c2ccc(Br)cc2)s1", "0%"),
]

What value of Activity has been recorded for this entry: Cl.Cl.N=C(N)N/N=C/c1ccc(-c2ccc(/C=N/NC(=N)N)s2)cc1
0%

###

- assay comment: Hemolytic effect in sheep RBC assessed as release of hemoglobin at 25 ug/ml after 1 hr
- Assay type: ADME, cell-based, Ovis aries, Erythrocyte
- condition details: sheep red blood cells, read-out: Activity
measurement type: hemolysis at 1 h, 25 ug/ml (%)
Lab book: enter the figure in %, no units written.

What value of hemolysis at 1 h, 25 ug/ml has been recorded for this entry: Cl.Cl.N=C(N)N/N=C/c1ccc(-c2ccncc2)s1
20

###

- Tested on: Candida albicans
- assay comment: Antifungal activity against Candida albicans ATCC 10231 by broth dilution method
- Assay type: functional
Strictly below 4 mg/L in MIC: True. Otherwise: False.

# smiles str, discrete label
rows = [
    ("Cl.N=C(N)N/N=C/c1ccc(-c2ccccc2)s1", "True"),
    ("COc1ccc(-c2ccc(/C=N/NC(=N)N)s2)cc1.Cl", "False"),
    ("O=Cc1ccc(-c2ccccc2)s1", "False"),
    ("Cl.N=C(N)N/N=C/c1ccc(-c2ccccc2)o1", "False"),
    ("C[C@@H](c1ncncc1F)[C@](O)(Cn1cncn1)c1ccc(F)cc1F", "True"),
    ("Cl.N=C(N)N/N=C/c1ccc(-c2ccc(Br)cc2)s1", "True"),
]

Just wondering, is MIC of Cl.Cl.N=C(N)N/N=C/c1ccc(-c2ccncc2)s1 below 4 mg/L?
False

Just wondering, is MIC of Cc1ccc(-c2ccc(/C=N/NC(=N)N)s2)cc1.Cl below 4 mg/L?
True

###

- Tested on: Trichophyton mentagrophytes
- assay comment: Antifungal activity against Trichophyton mentagrophytes DMT4 by broth dilution method
- Format: functional
Strictly below 6 µg/mL in MIC: class 1. Otherwise: class 0.

# smiles str, discrete label
measured = [
    ("Cl.Cl.N=C(N)N/N=C/c1ccc(-c2ccncc2)s1", "class 0"),
    ("Cc1ccc(-c2ccc(/C=N/NC(=N)N)s2)cc1.Cl", "class 1"),
    ("Cl.Cl.N=C(N)N/N=C/c1ccc(-c2ccc(-c3ccc(/C=N/NC(=N)N)cc3)s2)cc1", "class 1"),
    ("Cl.N#Cc1ccc(-c2ccc(/C=N/NC(=N)N)s2)cc1", "class 0"),
    ("Cl.N=C(N)N/N=C/c1ccc(-c2ccc(Br)cc2)s1", "class 1"),
]

# next compound below
Just wondering, is MIC of Cl.N=C(N)N/N=C/c1ccc(-c2ccccc2)o1 below 6 µg/mL?
class 0

###

- assay comment: Toxicity against zebrafish embryo measured at 96 hrs post fertilization by inverted microscopic analysis
- Assay type: organism-based, Danio rerio
- condition details: zebrafish embryos
In this section, each of the compounds is paired with its reported LC50 at 96 h.

Example cases with answers are listed next.
# compound, measurement type, endpoint result
records = [
    ("Cl.Cl.N=C(N)N/N=C/c1ccc(-c2ccc(/C=N/NC(=N)N)s2)cc1", "LC50 at 96 h", "> 50 µg/mL"),
    ("Cc1ccc(-c2ccc(/C=N/NC(=N)N)s2)cc1.Cl", "LC50 at 96 h", "8.2 µg/mL"),
]

What value of LC50 at 96 h has been recorded for this entry: C[C@@H](c1ncncc1F)[C@](O)(Cn1cncn1)c1ccc(F)cc1F [VORICONAZOLE]
3.1 µg/mL

What value of LC50 at 96 h has been recorded for this entry: Cl.N=C(N)N/N=C/c1ccc(-c2ccc(Br)cc2)s1
14.1 µg/mL

###

- Organism: Danio rerio
- assay comment: Toxicity against zebrafish embryo assessed as effect on otoliths at 2.5 ug/ml measured at 96 hrs post fertilization by inverted microscopic analysis
- Assay type: organism-based
- condition details: in vivo
In this section, each of the molecules is paired with its reported Activity.
Lab book: enter the figure in %, no units written.

Example cases with answers are listed next.
# smiles str, units of measure, endpoint result
records = [
    ("Cl.Cl.N=C(N)N/N=C/c1ccc(-c2ccc(/C=N/NC(=N)N)s2)cc1", "%", 0),
    ("Cl.N=C(N)N/N=C/c1ccc(-c2ccc(Br)cc2)s1", "%", 0),
    ("C[C@@H](c1ncncc1F)[C@](O)(Cn1cncn1)c1ccc(F)cc1F", "%", 100),
]

Please find the next molecule below.
What value of Activity has been recorded for this entry: Cc1ccc(-c2ccc(/C=N/NC(=N)N)s2)cc1.Cl
0

###

- Species: Danio rerio
- assay comment: Toxicity against zebrafish embryo assessed as skeletal deformities at 2.5 ug/ml measured at 96 hrs post fertilization by inverted microscopic analysis
- Assay type: organism-based
- condition details: in vivo
In this section, each of the compounds is paired with its reported Activity.
# include the unit after the value

# smiles str, endpoint result
records = [
    ("C[C@@H](c1ncncc1F)[C@](O)(Cn1cncn1)c1ccc(F)cc1F", "94.74%"),
    ("Cl.N=C(N)N/N=C/c1ccc(-c2ccc(Br)cc2)s1", "0%"),
    ("Cc1ccc(-c2ccc(/C=N/NC(=N)N)s2)cc1.Cl", "0%"),
]

Please find the next compound below.
What value of Activity has been recorded for this entry: Cl.Cl.N=C(N)N/N=C/c1ccc(-c2ccc(/C=N/NC(=N)N)s2)cc1
0%

###

- assay comment: Toxicity against zebrafish embryo assessed as dead embryos at 10 ug/ml measured at 96 hrs post fertilization by inverted microscopic analysis
- Assay type: organism-based, Danio rerio
- condition details: read-out: Activity
measurement type: mortality at 96 h, 10 ug/ml (%)
Lab book: enter the figure in %, no units written.

Example cases with answers are listed next.
# smiles str, endpoint result
data = [
    ("Cl.N=C(N)N/N=C/c1ccc(-c2ccc(Br)cc2)s1", 30),
    ("C[C@@H](c1ncncc1F)[C@](O)(Cn1cncn1)c1ccc(F)cc1F", 100),
]

What value of mortality at 96 h, 10 ug/ml has been recorded for this entry: Cc1ccc(-c2ccc(/C=N/NC(=N)N)s2)cc1.Cl
50

What value of mortality at 96 h, 10 ug/ml has been recorded for this entry: Cl.Cl.N=C(N)N/N=C/c1ccc(-c2ccc(/C=N/NC(=N)N)s2)cc1
0

###

- Test system: Candida albicans
- assay comment: Induction of DNA intercalation with Candida albicans genomic DNA at 25 ug/ml after 12 hrs by ethidium bromide staining based gel electrophoresis method
Calls of active or inactive are those of the source. No cut-off for these calls is given here.
Classes to choose from: Y (active), N (inactive)

# smiles str, target under test, discrete label
measured = [
    ("Cl.Cl.N=C(N)N/N=C/c1ccc(-c2ccncc2)s1", "Candida albicans", "Y"),
    ("Cl.Cl.N=C(N)N/N=C/c1ccc(-c2ccc(/C=N/NC(=N)N)s2)cc1", "Candida albicans", "Y"),
    ("COc1ccc(-c2ccc(/C=N/NC(=N)N)s2)cc1.Cl", "Candida albicans", "Y"),
    ("Cl.N=C(N)N/N=C/c1ccc(-c2ccc(F)cc2)s1", "Candida albicans", "Y"),
    ("Cl.N#Cc1ccc(-c2ccc(/C=N/NC(=N)N)s2)cc1", "Candida albicans", "Y"),
    ("O=Cc1ccc(-c2ccccc2)s1", "Candida albicans", "N"),
]

Look up the recorded call for Cl.N=C(N)N/N=C/c1ccc(-c2ccccc2)s1 in this test.
Y

Look up the recorded call for Cl.Cl.N=C(N)N/N=C/c1ccc(-c2ccc(-c3ccc(/C=N/NC(=N)N)cc3)s2)cc1 in this test.
Y

Look up the recorded call for Cl.N=C(N)N/N=C/c1ccc(-c2ccccc2)o1 in this test.
Y

Look up the recorded call for Cl.N=C(N)N/N=C/c1ccc(-c2ccc(Br)cc2)s1 in this test.
Y

Look up the recorded call for Cc1ccc(-c2ccc(/C=N/NC(=N)N)s2)cc1.Cl in this test.
Y

Origin of values: ChEMBL document CHEMBL3763135
